The values you see were collected from paper PMC10397247.

Molecular target: T1, 4H2692-bN
T1 chain: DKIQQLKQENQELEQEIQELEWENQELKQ
Test: two-hybrid library CCNG1;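 note: natural log of median RNA to DNA barcode read ratio; higher means stronger binding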
parameter.measured: interaction score

a = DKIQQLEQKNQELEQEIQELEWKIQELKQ [4H2438-bN]
b = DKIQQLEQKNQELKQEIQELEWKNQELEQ [4H2503-bN]
c = DKIQQLKQEIQELEQENQELKWENQELKQ [4H2588-bN]
(Q) Can you order these entries from above by interaction score? Start with the largest number and work down. Show the ranking through the labels, in the order asked for.
(A) c, a, b
